target: GST-Bcl-2 (Homo sapiens (Human), UniProt P10415); test: Time Resolved-Fluorescence Resonance Energy Transfer (TR-FRET) Bcl-2 binding assay; conditions: GST-Bcl-2 1 nM, F-Bak peptide probe 100 nM, Tb-anti-GST antibody 1 nM; Ki by Wang's equation
Sequence (P10415 whole entry): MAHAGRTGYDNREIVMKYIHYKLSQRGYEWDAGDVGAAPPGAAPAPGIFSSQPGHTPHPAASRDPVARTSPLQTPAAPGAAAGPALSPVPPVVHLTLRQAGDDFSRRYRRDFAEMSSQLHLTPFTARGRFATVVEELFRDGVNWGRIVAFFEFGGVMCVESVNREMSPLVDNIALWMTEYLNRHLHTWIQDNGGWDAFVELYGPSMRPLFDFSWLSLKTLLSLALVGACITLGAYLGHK
Could you please report measured Ki for the items listed next?
Give bare numbers, in nM.

CC1(C)CCC(CN2CCN(c3ccc(C(=O)NS(=O)(=O)c4ccc(NC5CCN(C6CCOCC6)CC5)c([N+](=O)[O-])c4)c(Oc4cc5cc[nH]c5cc4F)c3)CC2)=C(c2ccc(Cl)cc2)C1: 0.064

Exercise: Please tell me the measured Ki for CC1(C)CCC(CN2CCN(c3ccc(C(=O)NS(=O)(=O)c4ccc(NCCCN5CCOCC5)c([N+](=O)[O-])c4)c(Oc4ccc(N)c(Cl)c4)c3)CC2)=C(c2ccc(Cl)cc2)C1 ; system: GST-Bcl-2 (Homo sapiens (Human), UniProt P10415).
Key: 0.072

----------
target: GST-Bcl-2 (Homo sapiens (Human)); assay: Time Resolved-Fluorescence Resonance Energy Transfer (TR-FRET) Bcl-2 binding assay
Answer each item with its documented pKi.
Numbers only, as −log10 of the molar value.

CC1(C)CCC(CN2CCN(c3ccc(C(=O)NS(=O)(=O)c4ccc(N[C@H]5CC[C@H](N6CCOCC6)CC5)c([N+](=O)[O-])c4)c(Oc4cc5cc[nH]c5cc4Cl)c3)CC2)=C(c2ccc(Cl)cc2)C1 [Example 293]: 9.63
CN1CCC(Nc2ccc(S(=O)(=O)NC(=O)c3ccc(N4CCN(CC5=C(c6ccc(Cl)cc6)CC(C)(C)CC5)CC4)cc3Oc3cc4cc[nH]c4cc3C(F)(F)F)cc2[N+](=O)[O-])CC1 [Example 217]: 9.76
CC1(C)CCC(CN2CCN(c3ccc(C(=O)NS(=O)(=O)c4ccc(N[C@H]5CC[C@H](N6CCOCC6)CC5)c([N+](=O)[O-])c4)c(Oc4cccc(Cl)c4)c3)CC2)=C(c2ccc(Cl)cc2)C1 [Example 205]: 9.82
CO[C@H]1CC[C@H](CNc2ccc(S(=O)(=O)NC(=O)c3ccc(N4CCN(CC5=C(c6ccc(Cl)cc6)CC(C)(C)CC5)CC4)cc3Oc3ccc(NCC(F)F)nc3)cc2[N+](=O)[O-])CC1 [Example 375]: 6.48

Let's switch to this molecule now.
Exercise: Hello, please tell me recorded pKi for this one: O=C(NS(=O)(=O)c1ccc(N[C@H]2CC[C@H](N3CCOCC3)CC2)c([N+](=O)[O-])c1)c1ccc(N2CCN(CC3=C(c4ccc(Cl)cc4)CCOCC3)CC2)cc1Oc1cc2cc[nH]c2cc1Cl [Example 315]
Key: 8.34

----------
Provide the recorded Ki for the entries that follow.
target: GST-Bcl-2 (Homo sapiens (Human)); assay: Time Resolved-Fluorescence Resonance Energy Transfer (TR-FRET) Bcl-2 binding assay; details: GST-Bcl-2 1 nM, F-Bak peptide probe 100 nM, Tb-anti-GST antibody 1 nM; Ki by Wang's equation
Form entry: enter the amount, then its unit.

// worked examples, Ki included
CC1(C)CCC(CN2CCN(c3ccc(C(=O)NS(=O)(=O)c4cnc(OCC5CCOCC5)c(Cl)c4)c(Oc4cc5cc[nH]c5cc4F)c3)CC2)=C(c2ccc(Cl)cc2)C1 [Example 303]: 92 pM
CC1(C)CCC(CN2CCN(c3ccc(C(=O)NS(=O)(=O)c4ccc(NN5CCS(=O)(=O)CC5)c([N+](=O)[O-])c4)c(Oc4cc5cc[nH]c5cc4F)c3)CC2)=C(c2ccc(Cl)cc2)C1 [Example 331]: 238 pM
CN1CCC(Nc2ccc(S(=O)(=O)NC(=O)c3ccc(N4CCN(CC5=C(c6ccc(Cl)cc6)CC(C)(C)OC5)CC4)cc3Oc3cccc(I)c3)cc2[N+](=O)[O-])CC1 [Example 161]: 31 pM
CN(C)C(=O)COc1ccc(Oc2cc(N3CCN(Cc4ccccc4-c4ccc(Cl)cc4)CC3)ccc2C(=O)NS(=O)(=O)c2ccc(NCC3CCOCC3)c([N+](=O)[O-])c2)cc1 [Example 101]: 670000 pM

Field: Ki. Fill in for each record below.
1. CC1(C)CCC(CN2CCN(c3ccc(C(=O)NS(=O)(=O)c4ccc(NC5CCN(C6CCOCC6)CC5)c([N+](=O)[O-])c4)c(Oc4cccc(F)c4)c3)CC2)=C(c2ccc(Cl)cc2)C1 [Example 113]
2. Cc1cccc(Oc2cc(N3CCN(CC4=C(c5ccc(Cl)cc5)CC(C)(C)CC4)CC3)ccc2C(=O)NS(=O)(=O)c2ccc(NC3CCN(C)CC3)c([N+](=O)[O-])c2)c1 [Example 182]
3. CN(C)C(=O)CCc1ccccc1Oc1cc(N2CCN(Cc3ccccc3-c3ccc(Cl)cc3)CC2)ccc1C(=O)NS(=O)(=O)c1ccc(NCC2CCOCC2)c([N+](=O)[O-])c1 [Example 26]
4. CN1CCC(Nc2ccc(S(=O)(=O)NC(=O)c3ccc(N4CCN(CC5=C(c6ccc(Cl)cc6)CC(C)(C)CC5)CC4)cc3Oc3cccc4c3ccn4C(=O)OC(C)(C)C)cc2[N+](=O)[O-])CC1 [Example 202]
5. CC1(C)CCC(CN2CCN(c3ccc(C(=O)NS(=O)(=O)c4ccc(NCC5CCOCC5)c([N+](=O)[O-])c4)c(Oc4ccc(OCc5ccccc5)nc4)c3)CC2)=C(c2ccc(Cl)cc2)C1 [Example 284]
6. COc1ccccc1Oc1cc(N2CCN(CC3=C(c4ccc(Cl)cc4)CC(C)(C)CC3)CC2)ccc1C(=O)NS(=O)(=O)c1ccc(NC2CCN(C)CC2)c([N+](=O)[O-])c1 [Example 180]

Key:
["32 pM", "172 pM", "511 pM", "20000 pM", "79300 pM", "112 pM"]

----------
What Ki was measured for each of the following?
molecular target: GST-Bcl-2 (Homo sapiens (Human), UniProt P10415); experiment: Time Resolved-Fluorescence Resonance Energy Transfer (TR-FRET) Bcl-2 binding assay; conditions: GST-Bcl-2 1 nM, F-Bak peptide probe 100 nM, Tb-anti-GST antibody 1 nM; Ki by Wang's equation
Answers are plain numbers, in nM.

Solved cases (3 shown):
O=C(NS(=O)(=O)c1ccc(NCCCN2CCOCC2)c([N+](=O)[O-])c1)c1ccc(N2CCN(Cc3ccccc3-c3ccc(Cl)cc3)CC2)cc1Oc1ccc(-c2cccnc2)cc1 [Example 100]: 113
N#Cc1cccc(Oc2cc(N3CCN(Cc4ccccc4-c4ccc(Cl)cc4)CC3)ccc2C(=O)NS(=O)(=O)c2ccc(NCC3CCOCC3)c([N+](=O)[O-])c2)c1 [Example 22]: 5.46
CC1(C)CCC(CN2CCN(c3ccc(C(=O)NS(=O)(=O)c4ccc(NC5CCN(C6CCCC6)CC5)c([N+](=O)[O-])c4)c(Oc4cccc(Cl)c4)c3)CC2)=C(c2ccc(Cl)cc2)C1 [Example 130]: 0.067

// for each compound in input: emit Ki
1. CC1(C)CCC(CN2CCN(c3ccc(C(=O)NS(=O)(=O)c4ccc(N[C@@H]5CCN(Cc6cscn6)C[C@@H]5O)c([N+](=O)[O-])c4)c(Oc4cc5cc[nH]c5cc4F)c3)CC2)=C(c2ccc(Cl)cc2)C1 [Example 249]
2. CN(C)CCCc1ccccc1Oc1cc(N2CCN(Cc3ccccc3-c3ccc(Cl)cc3)CC2)ccc1C(=O)NS(=O)(=O)c1ccc(NCC2CCOCC2)c([N+](=O)[O-])c1 [Example 28]

Key:
0.168
1.33

----------
target: GST-Bcl-2 (Homo sapiens (Human), UniProt P10415); test: Time Resolved-Fluorescence Resonance Energy Transfer (TR-FRET) Bcl-2 binding assay; settings: GST-Bcl-2 1 nM, F-Bak peptide probe 100 nM, Tb-anti-GST antibody 1 nM; Ki by Wang's equation
Threshold 0.3 nM. Ki below it: satisfied. Ki at it or above: not satisfied.

CN(C)CCCNc1ccc(S(=O)(=O)NC(=O)c2ccc(N3CCN(Cc4ccccc4-c4ccc(Cl)cc4)CC3)cc2Oc2cccc3c2CCC(=O)N3)cc1[N+](=O)[O-]: satisfied

Then there is this compound:
Exercise: # strict comparison: is reported Ki < 0.3 nM? input = CN(C)CCc1ccc(Oc2cc(N3CCN(Cc4ccccc4-c4ccc(Cl)cc4)CC3)ccc2C(=O)NS(=O)(=O)c2ccc(NCC3CCOCC3)c([N+](=O)[O-])c2)cc1
Key: not satisfied

----------
molecular target: UniProt:P10415; test: Time Resolved-Fluorescence Resonance Energy Transfer (TR-FRET) Bcl-2 binding assay; settings: GST-Bcl-2 1 nM, F-Bak peptide probe 100 nM, Tb-anti-GST antibody 1 nM; Ki by Wang's equation
Assignment: determine reported pKi for the given compounds.
One number for each entry, as −log10 of the molar value.

CCN(CC)C1CCC(Nc2ccc(S(=O)(=O)NC(=O)c3ccc(N4CCN(CC5=C(c6ccc(Cl)cc6)CC(C)(C)CC5)CC4)cc3Oc3cccc(Cl)c3)cc2[N+](=O)[O-])CC1 (centres unmarked) [Example 204]: 10.12
COCCNc1ccc(S(=O)(=O)NC(=O)c2ccc(N3CCN(CC4=C(c5ccc(Cl)cc5)CC(C)(C)CC4)CC3)cc2Oc2cccc3c2CC(=O)N3)cc1[N+](=O)[O-] [Example 321]: 10.54
CC1(C)CCC(CN2CCN(c3ccc(C(=O)NS(=O)(=O)c4ccc(NCC5CCOCC5)c([N+](=O)[O-])c4)c(Oc4ccc(N)nc4)c3)CC2)=C(c2ccc(Cl)cc2)C1 [Example 272]: 8.91

Report pKi for every entry below.
1. COCCN1CCC(Nc2ccc(S(=O)(=O)NC(=O)c3ccc(N4CCN(CC5=C(c6ccc(Cl)cc6)CC(C)(C)CC5)CC4)cc3Oc3cccc(Cl)c3)cc2[N+](=O)[O-])CC1 [Example 173]
2. O=C(NS(=O)(=O)c1ccc(NCC2CCOCC2)c([N+](=O)[O-])c1)c1ccc(N2CCN(Cc3ccccc3-c3ccc(Cl)cc3)CC2)cc1Oc1ccc2[nH]cc(CCCN3CCOCC3)c2c1 [Example 74]
3. Cc1nc2cc(Oc3cc(N4CCN(Cc5ccccc5-c5ccc(Cl)cc5)CC4)ccc3C(=O)NS(=O)(=O)c3ccc(NCCCN4CCOCC4)c([N+](=O)[O-])c3)ccc2s1 [Example 24]

Key:
1: 10.72; 2: 6.72; 3: 7.82

# batch size: 2; output pKi per entry
1. CC1(C)CCC(CN2CCN(c3ccc(C(=O)NS(=O)(=O)c4ccc(OCC5(F)CCOCC5)c(S(=O)(=O)C(F)(F)F)c4)c(Oc4cnc(N)c(Cl)c4)c3)CC2)=C(c2ccc(Cl)cc2)C1 [Example 348]
2. Cc1c(O)cccc1Oc1cc(N2CCN(CC3=C(c4ccc(Cl)cc4)CC(C)(C)CC3)CC2)ccc1C(=O)NS(=O)(=O)c1ccc(NC2CCN(C)CC2)c([N+](=O)[O-])c1 [Example 159]

Key:
1: 8.42; 2: 9.28

Please give pKi for each item listed below.
1. CC1(C)CCC(CN2CCN(c3ccc(C(=O)NS(=O)(=O)c4cnc(OCC5CCOCC5)c(C#N)c4)c(Oc4cc5cc[nH]c5cc4F)c3)CC2)=C(c2ccc(Cl)cc2)C1 [Example 301]
2. CC1(C)CCC(CN2CCN(c3ccc(C(=O)NS(=O)(=O)c4ccc(NC[C@@H]5CCCOC5)c([N+](=O)[O-])c4)c(Oc4cc5cc[nH]c5cc4F)c3)CC2)=C(c2ccc(Cl)cc2)C1 [Example 258]
3. CC1(C)CC(c2ccc(Cl)cc2)=C(CN2CCN(c3ccc(C(=O)NS(=O)(=O)c4ccc(NCC5CCOCC5)c([N+](=O)[O-])c4)c(Oc4cc5cc[nH]c5cc4Cl)c3)CC2)CO1 [Example 275]

Key:
1. 9.95
2. 10.08
3. 10.09

Would you mind listing pKi for each of the following compounds?
1. CC1(C)CCC(CN2CCN(c3ccc(C(=O)NS(=O)(=O)c4ccc(NCC5CCOCC5)c([N+](=O)[O-])c4)c(Oc4cnc(N)c(C#N)c4)c3)CC2)=C(c2ccc(Cl)cc2)C1 [Example 352]
2. CC1(C)CCC(CN2CCN(c3ccc(C(=O)NS(=O)(=O)c4ccc(NC5CCN(C6CC6)CC5)c([N+](=O)[O-])c4)c(Oc4cc5cc[nH]c5cc4F)c3)CC2)=C(c2ccc(Cl)cc2)C1 [Example 327]
3. CC1(C)CCC(CN2CCN(c3ccc(C(=O)NS(=O)(=O)c4ccc(NC5CCN(C6CC6)CC5)c([N+](=O)[O-])c4)c(Oc4cccc(F)c4F)c3)CC2)=C(c2ccc(Cl)cc2)C1 [Example 121]
4. O=C(NS(=O)(=O)c1ccc(NCC2CCOCC2)c([N+](=O)[O-])c1)c1ccc(N2CCN(Cc3ccccc3-c3ccc(Cl)cc3)CC2)cc1Oc1ccccc1-c1ccccc1 [Example 84]
5. CC1(C)CCC(CN2CCN(c3ccc(C(=O)NS(=O)(=O)c4ccc(N[C@@H]5CCN(C(CF)CF)C5)c([N+](=O)[O-])c4)c(Oc4cc5cc[nH]c5cc4F)c3)CC2)=C(c2ccc(Cl)cc2)C1 [Example 357]

Key:
[10.10, 9.67, 10.09, 7.86, 9.75]

Answer for every listed entry: what is its pKi? The entries follow.
1. CC1(C)CCC(CN2CCN(c3ccc(C(=O)NS(=O)(=O)c4ccc(NCCCN5CCOCC5)c([N+](=O)[O-])c4)c(Oc4ccccc4F)c3)CC2)=C(c2ccc(Cl)cc2)C1 [Example 125]
2. CN(C)CCCNc1ccc(S(=O)(=O)NC(=O)c2ccc(N3CCN(CC4=C(c5ccc(Cl)cc5)CC(C)(C)CC4)CC3)cc2Oc2ccccc2Cl)cc1[N+](=O)[O-] [Example 179]
3. CC1(C)CCC(CN2CCN(c3ccc(C(=O)NS(=O)(=O)c4ccc(NCC5CCOCC5)c([N+](=O)[O-])c4)c(Oc4cnc5[nH]ccc5c4Cl)c3)CC2)=C(c2ccc(Cl)cc2)C1 [Example 384]

Key:
1: 10.12; 2: 10.44; 3: 8.21
